Measured IC50 values are reported for all entries that follow.
- tested-on: UniProtKB P01889
- assay-comment: In vitro class I HLA binding assay (fluorescence polarization competition)
- condition-parameters: allele B*0702; fluorescence polarization competition; read-out: IC50 (nM), in vitro HLA binding affinity
Where a SMILES comes first, the peptide text is derived from it.
Answer in nM, number only, no unit symbol.

compound	units-of-measure	IC50
CC[C@H](C)[C@H](NC(=O)[C@H](Cc1ccc(O)cc1)NC(=O)[C@@H]1CCCN1C(=O)[C@@H](N)CCCNC(=N)N)C(=O)N[C@@H](CO)C(=O)N[C@@H](CCCCN)C(=O)N[C@@H](CC(N)=O)C(=O)N[C@@H](CC(=O)O)C(=O)N[C@@H](CC(C)C)C(=O)O [CYRPA_229] (H-RPYISKNDL-OH)	nM	244
C[C@H](NC(=O)[C@@H](NC(=O)[C@@H](NC(=O)[C@H](CC(N)=O)NC(=O)CNC(=O)[C@H](Cc1ccc(O)cc1)NC(=O)[C@H](CCCCN)NC(=O)[C@H](CCC(=O)O)NC(=O)[C@@H]1CCCN1C(=O)[C@@H](N)CCCCN)[C@@H](C)O)[C@@H](C)O)C(=O)O [CYRPA_316] (H-KPEKYGNTTA-OH)	nM	836000
CC[C@H](C)[C@H](N)C(=O)N1CCC[C@H]1C(=O)N[C@@H](Cc1ccccc1)C(=O)N[C@@H](Cc1c[nH]cn1)C(=O)N[C@@H](CCCCN)C(=O)N[C@@H](CCCCN)C(=O)N[C@@H](Cc1ccccc1)C(=O)N[C@H](C(=O)N[C@@H](CO)C(=O)N[C@@H](Cc1ccccc1)C(=O)O)[C@@H](C)CC [CYRPA_003] (H-IPFHKKFISF-OH)	nM	21900
CSCC[C@H](NC(=O)[C@H](CCC(=O)O)NC(=O)[C@H](CC(N)=O)NC(=O)[C@H](CCC(=O)O)NC(=O)[C@H](CCC(N)=O)NC(=O)[C@H](CC(C)C)NC(=O)[C@H](CC(N)=O)NC(=O)[C@H](CC(C)C)NC(=O)[C@@H]1CCCN1C(=O)[C@@H](N)CO)C(=O)O [RIPR_0246] (H-SPLNLQENEM-OH)	nM	22400
CC(C)C[C@H](NC(=O)[C@@H](NC(=O)[C@@H]1CCCN1C(=O)[C@@H](NC(=O)[C@@H](NC(=O)[C@H](Cc1c[nH]cn1)NC(=O)[C@H](CO)NC(=O)[C@H](C)NC(=O)[C@@H](N)CCCNC(=N)N)[C@@H](C)O)[C@@H](C)O)C(C)C)C(=O)O [AMA1_608] (H-RASHTTPVL-OH)	nM	258

The record that follows has no IC50 shown yet.
query: Please give measured IC50 of the following entry: CC[C@H](C)[C@H](NC(=O)[C@H](Cc1c[nH]c2ccccc12)NC(=O)[C@H](CO)NC(=O)[C@H](CC(=O)O)NC(=O)[C@H](CCCCN)NC(=O)[C@@H](NC(=O)[C@@H](N)CCCCN)C(C)C)C(=O)N[C@H](C(=O)N[C@@H](CC(C)C)C(=O)O)[C@@H](C)O [CYRPA_082] (H-KVKDSWITL-OH)
result: 458
